target: Dickkopf-related protein 1 (Homo sapiens) (UniProt O94907); assay: DKK1 binders on small-molecule microarrays, primary screen, biochemical, small-molecule microarray, 635 nm fluorescence scan (AID 1106); settings: DKK1 binding, higher = more signal;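 also: score merges emission near 667 nm with signal to noise over three replicate slides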
Sequence (O94907 whole entry, looked up): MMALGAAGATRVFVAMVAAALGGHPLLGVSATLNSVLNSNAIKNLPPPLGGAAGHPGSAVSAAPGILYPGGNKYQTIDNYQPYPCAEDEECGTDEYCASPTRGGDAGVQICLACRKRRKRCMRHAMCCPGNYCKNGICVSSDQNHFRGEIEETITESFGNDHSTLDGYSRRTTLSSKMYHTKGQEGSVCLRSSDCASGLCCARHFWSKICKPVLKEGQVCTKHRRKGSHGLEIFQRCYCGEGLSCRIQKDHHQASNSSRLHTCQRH
Threshold rule: composite z-score greater than or equal to 0.6 is MET; below that, NOT MET.

These recorded examples may help you get a feel for the data.
COMPOUND	SUBJECT OF TEST	ASSIGNED CLASS
O=C1C=C[C@@H](O)[C@@H]2[C@@H]3C(=O)N(C4CCCCC4)C(=O)[C@@H]3CC[C@@H]12	Dickkopf-related protein 1 (Homo sapiens) (UniProt O94907)	MET
CC(C)(C)N1C(=O)[C@H]2[C@@H]3C(=CC[C@H]2C1=O)C(=O)[C@H]1O[C@H]1[C@H]3O	Dickkopf-related protein 1 (Homo sapiens) (UniProt O94907)	NOT MET
CCc1cc2c(nc1CC)CCN(CCC(C)=NOCC[C@@H]1C=C[C@H](OC(C)=O)[C@@H](COC(C)=O)O1)C2	Dickkopf-related protein 1 (Homo sapiens) (UniProt O94907)	NOT MET
COC(=O)[C@H](C)NC(=O)CCC1CC(OC(=O)NCc2cccc3ccccc23)CC2(CCCC(COC(=O)NCCOc3ccccc3)O2)O1 (stereo partly drawn)	Dickkopf-related protein 1 (Homo sapiens) (UniProt O94907)	NOT MET
COC(=O)CC=C1c2ccccc2[C@H](OC)[C@H]1C	Dickkopf-related protein 1 (Homo sapiens) (UniProt O94907)	NOT MET
CC(=O)OC[C@H]1O[C@@H](ON=C(C)CCN2CCCCc3nc(C)c(C)cc32)[C@H](OC(C)=O)[C@@H](OC(C)=O)[C@@H]1OC(C)=O	Dickkopf-related protein 1 (Homo sapiens) (UniProt O94907)	MET

Now look at this one.
Threshold query (composite z-score >= 0.6) on COC(=O)[C@H](CCSC)NC(=O)CC=C[C@@H](C)CO
MET

---

target: Fibroblast growth factor 2 (Homo sapiens) (UniProt P09038); assay: FGF2 binders on small-molecule microarrays, primary screen, biochemical, small-molecule microarray, 635/667 nm fluorescence (AID 1133); settings: small-molecule microarray binding, FGF2, fluorescence 635/667; higher = more signal
Sequence (P09038 whole entry, looked up): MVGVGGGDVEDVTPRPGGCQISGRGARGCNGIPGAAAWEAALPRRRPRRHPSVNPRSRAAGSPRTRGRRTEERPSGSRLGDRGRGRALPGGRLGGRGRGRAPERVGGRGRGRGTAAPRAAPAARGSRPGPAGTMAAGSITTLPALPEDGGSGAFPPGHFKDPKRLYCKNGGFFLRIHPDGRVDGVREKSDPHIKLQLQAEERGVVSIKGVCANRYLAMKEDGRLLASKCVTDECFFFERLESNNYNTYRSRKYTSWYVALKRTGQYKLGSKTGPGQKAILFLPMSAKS
Threshold rule: composite z-score greater than or equal to 0.4 is true (1); below that, false (0).

COMPOUND	ASSIGNED CLASS
COC(=O)[C@H](C)NC(=O)CCC1CC(OC(=O)NCCc2ccc(F)cc2)CC2(CCCC(COC(=O)NCc3ccccc3)O2)O1 (stereo not given in full)	true (1)

Threshold query (composite z-score >= 0.4) on CC(C)=CCCC(C)=CCON=C1C[C@@H](O)[C@@H](O)[C@@H]2[C@@H]3C(=O)N(C4CCCCC4)C(=O)[C@@H]3CC[C@H]12
true (1)

Threshold query (composite z-score >= 0.4) on COC(=O)[C@@H]1CC[C@H](C)[C@@H](c2ccc(Br)cc2)N1C[C@H](O)CN=[N+]=[N-]
false (0)

Threshold query (composite z-score >= 0.4) on CON=C(C)CCN1CCc2nc(-c3ccccc3)c(-c3ccccc3)cc2C1
false (0)

Threshold query (composite z-score >= 0.4) on C[C@@H](c1ccccc1)N1C(=O)[C@H]2[C@H]3[C@H](O)[C@H](O)CC(=NOC[C@@H](O)COCc4ccco4)[C@H]3CC[C@H]2C1=O
true (1)

Threshold query (composite z-score >= 0.4) on COc1ccc(COC(=O)NN=C2C[C@@H](O)[C@@H](O)[C@@H]3[C@@H]4C(=O)N(C[C@@H]5CCCO5)C(=O)[C@@H]4CC[C@@H]23)cc1
false (0)

---

assay: modulators of HCV replicon luciferase signal, primary screen, HCV replication inhibitor project, Huh7 cells, luciferase reporter (AID 1109); conditions: 48 h, higher = more signal;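 also: huh7 hepatoma cells harbouring a luciferase neomycin HCV replicon reporter; luciferase luminescence as measure of HCV replicon replication; test concentration not given here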
z-score values by entry
Respond numerically, and do not add a unit to the figure.

Example entries begin here.
COMPOUND	z-score
CC(C)=CCCC(C)=CCON=C1C[C@@H](O)[C@@H](O)[C@@H]2[C@@H]3C(=O)N(Cc4ccc5c(c4)OCO5)C(=O)[C@@H]3CC[C@@H]12	0.298
CON=C(C)CCN1CCCc2nc(C)c(C)cc21	0.115
CC(CCN1CCc2nc(-c3ccccc3)c(-c3ccccc3)cc2C1)=NOC(C)CN1CCCc2nc(C)c(C)cc21 (stereo unspecified)	-3.08

Item O=C1C[C@H](c2ccccc2)[C@H](c2ccc(Br)cc2)O1 has what recorded z-score?
0.588

Item COCCNC(=O)OCC1CCCC2(CC(OC(=O)NCc3cccc4ccccc34)CC(CCC(=O)N[C@@H](C)C(=O)OC)O2)O1 (stereo partly specified) has what recorded z-score?
-0.942

Item COc1ccc2c(c1)O[C@@H](c1cccc(C(F)(F)F)c1)[C@H](O)C2=O has what recorded z-score?
1.18

---

assay: HepG2 liver cancer cell viability effects, profiling panel, resazurin fluorescence, 24 h, PK04 Diversity Set (AID 1172); details: higher = more signal; also: test concentration not given here
MEASUREMENT NAME: z-score
Respond numerically, and do not add a unit to the figure.

Example entries begin here.
MOLECULE	z-score
CCOC(=O)[C@H](Cc1ccccc1)NC(=O)CCC1CC(OC(=O)NCc2cccc3ccccc23)CC2(CCCC(COC(=O)NCCOc3ccccc3)O2)O1 (stereo partly drawn)	-0.208
C[C@@H](c1ccccc1)N1C(=O)[C@H]2[C@H]3[C@H](O)[C@H](O)CC(=NNC(=O)OCc4ccccc4)[C@@H]3CC[C@H]2C1=O	-0.289

Item CC(=O)OC[C@H]1O[C@@H](ON=C(C)CCN2CCCCc3nc(C)c(C)cc32)[C@H](OC(C)=O)[C@@H](OC(C)=O)[C@@H]1OC(C)=O has what recorded z-score?
-0.077

---

biological target: Pro-neuregulin-1, membrane-bound isoform (Homo sapiens); test: NRG1 binders on small-molecule microarrays, primary screen, psychiatric disease protein project, biochemical, small-molecule microarray, fluorescence 635/667 (AID 1075); details: NRG1 binding, 635 nm fluorescence, higher = more signal;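 also: score combines 667 nm spot fluorescence with signal to noise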
MEASUREMENT NAME: composite z-score
Respond numerically, and do not add a unit to the figure.

Example entries begin here.
COMPOUND	MEASUREMENT NAME	VALUE
COCCNC(=O)OCC1CCCC2(CC(OC(=O)NCc3cccc4ccccc34)CC(CCC(=O)N[C@@H](C)C(=O)OC)O2)O1 (stereo partly drawn)	composite z-score	0.737
COC(=O)CC=C[C@@H](C)[C@@H](C=NOC[C@@H](C)[C@H](OCc1ccccc1)C(C)C)OC	composite z-score	-0.296
C[C@@H]1CC[C@H]2C(=O)O[C@@H](COc3ccc(C(C)(C)C)cc3)CN2[C@H]1c1ccc(Br)cc1	composite z-score	0.101

Item CC(C)=CCCC(C)=CCON=C1C[C@@H](O)[C@@H](O)[C@@H]2[C@@H]3C(=O)N(Cc4ccc5c(c4)OCO5)C(=O)[C@@H]3CC[C@@H]12 has what recorded composite z-score?
0.364

Item COc1ccc(O[C@H]2C=C[C@@H](C#Cc3ccccc3)O[C@@H]2CO)cc1 has what recorded composite z-score?
0.658

Item CC(C)[C@@H](OCc1ccccc1)[C@H](C)C=NO[C@@H](C)c1cn([C@H](CO)Cc2ccccc2)nn1 has what recorded composite z-score?
-0.236

Item COc1ccc(O[C@H]2C=C[C@@H](c3ccccc3)O[C@@H]2CO)cc1 has what recorded composite z-score?
-0.224

Item CC(=O)OC[C@H]1O[C@H](C#CCCc2ccccc2)C=C[C@@H]1OC(C)=O has what recorded composite z-score?
1.22

---

experiment: small-molecule microarray binders of probe aDKK1, primary screen, biochemical, biotinylated probe, 635/667 nm fluorescence (AID 1099); details: higher = more signal;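 also: score merges 667nm spot fluorescence with signal to noise across triplicate slides; reference of the scale not given here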
MEASUREMENT NAME: composite z-score
Respond numerically, and do not add a unit to the figure.

MOLECULE	composite z-score
CC(CCN1CCCc2nc(C)c(C)cc21)=NO[C@@H](C)c1cn([C@H](CO)Cc2ccccc2)nn1	-0.264
CON(C)C(=O)c1nnc2c(n1)[nH]c1ccccc12	0.256
C=CC[C@@H]1C=C[C@H](ON=C(C)CCN2CCCc3nc(C)c(C)cc32)[C@@H](CO)O1	0.381
O=C1C=C[C@@H](O)[C@@H]2[C@@H]3C(=O)N(c4cccc(Oc5ccccc5)c4)C(=O)[C@@H]3CC[C@@H]12	-0.147
CC(C)CON=C1C[C@@H](O)[C@@H](O)[C@@H]2[C@@H]3C(=O)N(Cc4ccc5c(c4)OCO5)C(=O)[C@@H]3CC[C@@H]12	-0.218

Item COC(=O)C(C(=O)OC)C1CCCC(=O)C1 (stereo not drawn) has what recorded composite z-score?
-0.207

Item CCOC(=O)[C@H](Cc1ccccc1)NC(=O)CCC1CC(OC(=O)NCc2cccc3ccccc23)CC2(CCCC(COC(=O)NCCc3ccc(Cl)cc3)O2)O1 (stereo partly drawn) has what recorded composite z-score?
-0.217

Item CCOC(=O)[C@H](Cc1ccccc1)NC(=O)CCC1CC(OC(=O)NCc2cccc3ccccc23)CC2(CCCC(COC(=O)NCCOc3ccccc3)O2)O1 (stereo partly drawn) has what recorded composite z-score?
-0.351

Ref: PubChem BioAssay
